Target: human NKG2A/CD94 on cells (CHOK1-hNKG2A/CD94) (human, UniProt P26715 1-233; Q13241 1-179)
Sequence (P26715 whole entry, chain 1 of 2): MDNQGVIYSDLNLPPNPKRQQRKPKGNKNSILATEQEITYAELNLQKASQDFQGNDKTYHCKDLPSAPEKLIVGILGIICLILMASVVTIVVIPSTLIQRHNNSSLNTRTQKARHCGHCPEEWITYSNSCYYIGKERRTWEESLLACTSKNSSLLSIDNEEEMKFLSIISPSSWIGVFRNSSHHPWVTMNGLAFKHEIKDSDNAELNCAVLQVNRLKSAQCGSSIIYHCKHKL
Sequence (Q13241 whole entry, chain 2 of 2): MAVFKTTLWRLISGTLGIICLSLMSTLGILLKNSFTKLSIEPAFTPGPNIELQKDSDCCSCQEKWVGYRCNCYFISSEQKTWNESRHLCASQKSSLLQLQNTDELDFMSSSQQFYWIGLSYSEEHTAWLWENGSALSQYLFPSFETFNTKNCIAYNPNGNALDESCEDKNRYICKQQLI
Assay: cell-based or functional assay
Observation Type: IC50 (nM), killing of LCL721.221 target cells by NK92 cells
# number only, unit nM dropped from output

Request: Any idea what its IC50 (nM), killing of LCL721.221 target cells by NK92 cells is? The binder is hu-52VH-33/VL-11 (antibody, human IgG4 S228P, kappa, V domains shown, full-length humanized IgG4 antibody (not the L235E/D265A/R409K IgG4 mutant); also called hu-52 humanized antibody) VH: QVQLVQSGAEVKKPGSSVKVSCKASGFNIQNTYLHWVRQAPGQGLEWMGRIDPANDNIKYVPKFQGRVTITADTSTNTAYMELSSLRSEDTAVYYCTRHGLFYEGWFAYWGQGTLVTVSS VL: DIQLTQSPSSLSASVGDRVTITCSVSSSISSSNLHWYQQKPGKAPKPLIYGTSNLASGVPSRFSGSGSGTDYTLTISSLQPEDAATYYCQQWSSYPYTFGQGTKLEIKR
Response: 0.09

Request: Query hu-52VH-13/VL-21 (antibody, human IgG4 S228P, kappa, V domains shown, full-length humanized antibody; also called hu-52 humanized antibody) VH: QVQLVQSGAEVKKPGASVKVSCKASGFNIQNTYLHWVRQAPGQGLEWMGRIDPANDNIKYVPKFQGRVTMTADTSTNTAYMELSSLRSEDTAVYYCTRHGLFYEGWFAYWGQGTLVTVSS VL: DIQLTQSPSTLSASVGDRVTITCSVSSSISSSNLHWYQQKPGKAPKPLIYGTSNLASGVPSRFSGSGSGTEYTLTISSLQPDDAATYYCQQWSSYPYTFGQGTKLEIKR next
Response: 0.14

API: the following record is the query input.
Request: Value lookup for IC50 (nM), killing of LCL721.221 target cells by NK92 cells; key = hu-52VH-13/VL-11 (antibody, human IgG4 S228P, kappa, V domains shown, full-length humanized antibody; also called hu-52 humanized antibody) VH: QVQLVQSGAEVKKPGASVKVSCKASGFNIQNTYLHWVRQAPGQGLEWMGRIDPANDNIKYVPKFQGRVTMTADTSTNTAYMELSSLRSEDTAVYYCTRHGLFYEGWFAYWGQGTLVTVSS VL: DIQLTQSPSSLSASVGDRVTITCSVSSSISSSNLHWYQQKPGKAPKPLIYGTSNLASGVPSRFSGSGSGTDYTLTISSLQPEDAATYYCQQWSSYPYTFGQGTKLEIKR
Response: 0.19
